- Tested on: Mus musculus
- PROTOCOL DESCRIPTION: Drug level in mouse at 10 mg/kg, po
- CONDITION DETAILS: read-out: Activity, in vivo
PARAMETER: concentration

QUERY: Param request: concentration | system Mus musculus | item O=C(O)c1cccnc1 [NIACIN]
RESULT: 20 µM

* * *

- PROTOCOL DESCRIPTION: Oral bioavailability in mouse at 2 mg/kg, po
- Type: ADME, organism-based
- CONDITION DETAILS: in vivo
PARAMETER: bioavailability (%)
API: value field is a number in %; no unit string.

QUERY: For the molecule Cc1c(CCC(=O)Nc2ccccc2C(=O)O)cnn1-c1ccc(O)cc1 , report bioavailability.
RESULT: 2.5

QUERY: For the molecule O=C(CCc1cnc(-c2ccc(O)cc2Cl)s1)Nc1ccccc1C(=O)O , report bioavailability.
RESULT: 37

QUERY: For the molecule O=C(CCc1nc(-c2ccc(O)cc2)no1)Nc1ccccc1C(=O)O , report bioavailability.
RESULT: 6

QUERY: For the molecule O=C(CCc1cnc(-c2ccc(O)cn2)s1)Nc1ccccc1C(=O)O , report bioavailability.
RESULT: 27

QUERY: For the molecule O=C(CCc1ccc(-c2ccc(O)cc2Cl)cc1)Nc1ccccc1C(=O)O , report bioavailability.
RESULT: 5

QUERY: For the molecule O=C(CCc1ccc(-c2ccc(O)cn2)cc1)Nc1ccccc1C(=O)O , report bioavailability.
RESULT: 57
